- Experiment description: NCI Yeast Anticancer Drug Screen. Data for the mlh1 rad18 strain (AID 175)
- Recorded conditions: S. cerevisiae mlh1 rad18 strain growth inhibition; at 50.0 µM; active compounds read high
About 79,000 compounds went through this panel and 15% of them were active in at least one assay; those are over-represented in the sample as a whole.
Property label: growth inhibition (%)
Field: numeric (%). Do not append units.

// returns reported growth inhibition for input CCCCCCCCCCCCCCCCCC[N+](C)(C)Cc1ccc(C[N+](C)(C)CCCCCCCCCCCCCCCCCC)cc1
8.2

// returns reported growth inhibition for input CC(=O)Nc1ccc(N=Cc2cc(Cl)cc(Cl)c2O)cc1
65.8

// returns reported growth inhibition for input CSc1nnc(CCC(=O)Nc2c(C)cccc2C(C)(C)C)o1
1.65

// returns reported growth inhibition for input O=C(c1ccccc1)c1cccc2ccccc12
88.2

// returns reported growth inhibition for input Cc1nn(C(=O)c2ccccc2O)c2c1C(c1ccc(O)cc1O)SC(N)=N2 (stereo not drawn)
48.2

// returns reported growth inhibition for input COc1ccc(/C=N/NC(=O)c2ccco2)cc1OC
35.8

// returns reported growth inhibition for input CC1(C)CCC2(C(=O)O)CCC3(C)C(=CCC4C5(C)CC(O)C(O)C(C)(C(=O)O)C5CCC43C)C2C1 (stereo not drawn)
91.9

// returns reported growth inhibition for input S=C(N/N=C/c1ccccn1)N1CC2CCC(CC2)C1
89.7

// returns reported growth inhibition for input CCC/C(C)=N/NC(=S)SC
96.3

// returns reported growth inhibition for input N=C(N)Cc1ccc(NC(=O)c2ccc(C(=O)Nc3ccc(CC(=N)N)cc3)cc2)cc1
27.9

// returns reported growth inhibition for input CC(=O)OC(C)(C)N=Nc1ccc(Br)cc1
98.2

// returns reported growth inhibition for input O=[N+]([O-])c1ccc(C2=Nn3c(nnc3-c3ccc(Cl)cc3)SC2)o1
79.3

// returns reported growth inhibition for input Cc1ccc(S(=O)(=O)OC2COC3C(OS(=O)(=O)c4ccc(C)cc4)COC23)cc1 (stereo not drawn)
4

// returns reported growth inhibition for input Cc1ccc(S(=O)(=O)NCCSCCSCCNS(=O)(=O)c2ccc(C)cc2)cc1
55.2

// returns reported growth inhibition for input Clc1ccc(SSN2CCOCC2)cc1
97.2

// returns reported growth inhibition for input O=C1/C(=C/c2cccc(O)c2)SC(=S)N1/C=C\c1nc2ccccc2[nH]c1=O
-0.25

// returns reported growth inhibition for input CC(=O)/C(=C\c1cccc(Cl)c1)C(=O)CCN(C)C
25.1

// returns reported growth inhibition for input CCCOC(=O)C#CC(=O)OCCC
74.6

// returns reported growth inhibition for input CC1OC(Oc2c(-c3ccc(O)c(O)c3O)oc3cc(O)ccc3c2=O)C(O)C(O)C1O (stereo not drawn)
27.8

// returns reported growth inhibition for input O=C(NCCCN1CC2CCCC2C1)C(C1CCCCC1)C1CCCCC1 (stereo not drawn)
99.5

// returns reported growth inhibition for input COc1ccc(N2C(=O)C(=O)C(C(C)=O)C2=O)cc1 (stereo not drawn)
99.2

// returns reported growth inhibition for input O=C(CCl)NC(=O)N(/N=C/c1ccco1)c1ccccc1
58

// returns reported growth inhibition for input CC(=O)OC1CCC2(C)C(CCC3C2CCC2(C)C4CCC32OC(=O)C4CC(=O)O)C1 (stereo not drawn)
93.5

----------
- Experiment description: NCI Yeast Anticancer Drug Screen. Data for the sgs1 mgt1 strain (AID 161);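 also: 0% = growth of cultures given vehicle only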
- Recorded conditions: S. cerevisiae sgs1 mgt1 strain, at 50.0 µM (retest, dose inferred, filed as 5.0), active compounds read high
This is part of a sample that, as a whole, favours compounds with a hit. Of some 79,000 tested, about 15% had one in any assay.
Could you please report measured growth inhibition for the items listed next?
Field: numeric (%). Do not append units.

// returns reported growth inhibition for input CCCCCCCCCCCC(=O)NC(CCC(=O)O)C(=O)O (configuration not stated)
-1

// returns reported growth inhibition for input N=C(N)Cc1ccc(NC(=O)c2ccc(C(=O)Nc3ccc(CC(=N)N)cc3)cc2)cc1
-21

// returns reported growth inhibition for input COc1ccccc1/C=C/c1ccnc2ccccc12
98

// returns reported growth inhibition for input O=c1c2ccccc2c2ccccc2c(=O)n1-c1cc2c3ccccc3ccc2c2ccccc12
9

// returns reported growth inhibition for input CN1CCN(CCn2c3c4ccccc4ccc3c3oc(=O)c4ccccc4c32)CC1
96

// returns reported growth inhibition for input CCN(CC)c1ccc(N=Nc2ccc(Br)cn2)c(O)c1
79

// returns reported growth inhibition for input O=C(O)C1C(Br)(c2ccccc2)C1(Br)c1ccccc1 (configuration not stated)
70

// returns reported growth inhibition for input CCCC(=O)Oc1c(Br)cc(Br)cc1Br
7

// returns reported growth inhibition for input C=CCOC(=O)OCCCO
-1

// returns reported growth inhibition for input Nc1nc2ccccc2cc1C(=O)O
-55

// returns reported growth inhibition for input Cc1cc(SCC(=O)c2ccc(Cl)cc2)cc(C)[o+]1
93

// returns reported growth inhibition for input O=C(OC1=C(Br)C(=O)c2ccccc2C1=O)c1ccccc1
98
